# Target System: Klenow fragment lacking exonuclease activity (KF exo−) (Escherichia coli, UniProt P00582, D355A/E357A)
# Construct: enzyme solution of the Klenow fragment lacking exonuclease activity (KF exo^−, Amersham USB); purchased Amersham USB
# Sequence (P00582 324-928 D355A/E357A): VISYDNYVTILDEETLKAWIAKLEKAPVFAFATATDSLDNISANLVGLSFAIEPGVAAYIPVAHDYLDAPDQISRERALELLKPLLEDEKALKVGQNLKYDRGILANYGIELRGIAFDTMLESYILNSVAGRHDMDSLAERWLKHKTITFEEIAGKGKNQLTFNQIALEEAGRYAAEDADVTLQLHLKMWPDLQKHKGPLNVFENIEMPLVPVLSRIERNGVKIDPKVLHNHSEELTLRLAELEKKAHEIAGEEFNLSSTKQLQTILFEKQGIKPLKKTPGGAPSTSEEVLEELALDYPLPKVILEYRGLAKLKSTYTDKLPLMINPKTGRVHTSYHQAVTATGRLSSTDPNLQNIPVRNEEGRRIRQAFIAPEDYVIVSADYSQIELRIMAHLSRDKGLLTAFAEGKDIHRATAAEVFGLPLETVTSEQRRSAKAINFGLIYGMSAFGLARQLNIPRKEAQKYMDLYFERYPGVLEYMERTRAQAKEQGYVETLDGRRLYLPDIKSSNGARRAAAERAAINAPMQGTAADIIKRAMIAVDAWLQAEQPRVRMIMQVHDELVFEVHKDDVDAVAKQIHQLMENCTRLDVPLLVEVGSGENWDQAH
# Assay type: biochemical, E. coli
# Experimental Context: template (N) = G, temp35N-1; 37° C.
Quantity Measured: Vmax (% min^−1)
Express the result in % min^−1 but write the number alone.

CC#Cc1cc(C=O)n([C@H]2C[C@H](O)[C@@H](COP(=O)(O)OP(=O)(O)OP(=O)(O)O)O2)c1 : 0.13

Query string: Fill blank: measured Vmax of the compound Nc1ccn([C@H]2C[C@H](O)[C@@H](COP(=O)(O)OP(=O)(O)OP(=O)(O)O)O2)c(=O)n1 [dCTP, reference compound] is ____.
Result string: 5.5

Query string: Would you mind doing O=Cc1cccn1[C@H]1C[C@H](O)[C@@H](COP(=O)(O)OP(=O)(O)OP(=O)(O)O)O1 as well?
Result string: 0.061

Query string: Would you mind doing Cc1cn([C@H]2C[C@H](O)[C@@H](COP(=O)(O)OP(=O)(O)OP(=O)(O)O)O2)c(=O)[nH]c1=O [dTTP, reference compound] as well?
Result string: 0.29

Ref: patent US8030478B2
